- Test system: HIV-1 protease
- TEST: Selectivity index, ratio IC50 for cytotoxicity against human HEK-293T cells over IC50 for inhibition of HIV-1 protease
- Format: toxicity, cell-based
- TEST_CONTEXT: read-out: Ratio CC50/IC50
Listing of entries alongside the reported selectivity ratio.
MEASURED_ATTRIBUTE: selectivity ratio

1. CC(C)CN(C[C@@H](O)[C@H](Cc1ccccc1)NC(=O)CN1CCS(=O)(=O)CC1)S(=O)(=O)c1ccc(NO)cc1	> 4220
2. CC(C)CN(C[C@@H](O)[C@H](Cc1ccccc1)NC(=O)[C@@H]1COCCN1)S(=O)(=O)c1ccc(S(C)(=O)=O)cc1	> 440
3. CC(C)CN(C[C@@H](O)[C@H](Cc1ccccc1)NC(=O)[C@H]1CNCCO1)S(=O)(=O)c1ccc(O)cc1	> 35400
4. CC(C)CN(C[C@@H](O)[C@H](Cc1ccccc1)NC(=O)[C@H]1CNCCO1)S(=O)(=O)c1ccc(N)cc1	> 3680
